- measuredTarget: T1, hCD27-muFc (human; mouse, UniProt P26842 20-192)
- T1 construct: range 1-192; Secreted from HEK293, Protein A purified; not shown: mouse IgG1-Fc (muFc), residues 98 to 324 of UniProt P01868
- T1 sequence (looked up): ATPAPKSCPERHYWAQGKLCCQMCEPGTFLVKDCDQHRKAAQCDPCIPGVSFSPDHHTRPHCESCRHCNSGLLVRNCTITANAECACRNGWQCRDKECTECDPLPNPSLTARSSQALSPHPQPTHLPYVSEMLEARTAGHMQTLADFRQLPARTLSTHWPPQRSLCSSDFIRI
- testName: BLI (Octet K2), antibody on Protein A biosensor, hCD27-muFc in solution
Classify by measured kon: yes (1) if it is equal to or exceeds 90000 M⁻¹ s⁻¹, no (0) if it is smaller.

# example entries with known answers
binder="m2F11 (antibody, human IgG1, V domains shown, Chimeric antibody: mouse VH/VL on human IgG1 / human kappa constant regions; Parent of the humanized antibodies; also called clone 2F11; not shown: human IgG1 constant region, UniProt P01857) VH: EVQLQESGGDLVKPGGSLKLSCAASGFTFSSYAMSWVRQTPEKRLEWVAIIGDGDTYTYYPDSVKGRFTVSRDNAKNNLYLQMSHLKSEDTAMYYCVRTRGGPFDYWGQGTTLTVSS VL: DIVLTQTPALMSASPGEKVTMTCSASSSVGSMHWYQQKSGTSPKRWIYDTSKLASGVPARFSGSGSGTSYSLTISSMEAEDAATYYCQQWSSIPPTFGAGTTLELK" labelclass="yes (1)"
binder="12996 (antibody, human IgG1, V domains shown, not shown: a dimerising Fc or GST, Humanized m2F11, human IgG1 / kappa) VH: EVHLQESGGGLVKPGGSLRLSCAASGFTFSSYAMSWVRQAPEKGLEWVAIIGDGDTYTYYPDSVKGRFTISRDNSKNRLYLQMNSLKSEDTAMYYCVRTRGGPFDYWGQGTTLTVSS VL: EILLTQSPAFMSATPGEKVTITCSASSSVGSMHWYQQKSGQSPRRLIYDTSKLASGVPDRFSGSGSGTDYTLTISSLEAEDAATYYCQQWSSIPPTFGAGTTLELK" labelclass="no (0)"
binder="d14822 (antibody, human IgG1, V domains shown, not shown: a dimerising Fc or GST, Humanized m2F11, human IgG1 / kappa) VH: EVHLQESGGGLVKPGGSLRLSCAASGFTFSSYAMSWVRQTPDKGLEWVAIIGDGDTYTYYPDSVKGRFTISRDNSKNTLYLQMNDLKSEDTAMYYCVRTRGGPFDYWGQGTTLTVSS VL: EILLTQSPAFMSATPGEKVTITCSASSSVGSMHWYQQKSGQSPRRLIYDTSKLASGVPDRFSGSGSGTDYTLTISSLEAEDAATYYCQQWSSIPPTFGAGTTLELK" labelclass="no (0)"

Q: Check if kon >= 90000 M⁻¹ s⁻¹ (inclusive). Item: d9419 (antibody, human IgG1, V domains shown, not shown: a dimerising Fc or GST, Humanized m2F11, human IgG1 / kappa) VH: EVHLQESGGALVKPGGSLRLSCAASGFTFSSYAMSWVRQKPEKNLEWVAIIGDGDTYTYYPDSVKGRFTISRDNAKNTLYLQMSDLKSEDTAMYYCVRTRGGPFDYWGQGTTLTVSS VL: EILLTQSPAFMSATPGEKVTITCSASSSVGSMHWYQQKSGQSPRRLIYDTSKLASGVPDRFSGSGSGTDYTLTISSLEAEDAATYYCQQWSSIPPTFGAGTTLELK
Ans: yes (1)

Q: Would you mind doing 12674 (antibody, human IgG1, V domains shown, not shown: a dimerising Fc or GST, Humanized m2F11, human IgG1 / kappa) VH: EVHLQESGGGLVKPGGSLRLSCAASGFTFSSYAMSWVRQAPGKGLEWVAIIGDGDTYTYYPDSVKGRFTISRDNSKNRLYLQMNSLKSEDTAMYYCVRTRGGPFDYWGQGTTLTVSS VL: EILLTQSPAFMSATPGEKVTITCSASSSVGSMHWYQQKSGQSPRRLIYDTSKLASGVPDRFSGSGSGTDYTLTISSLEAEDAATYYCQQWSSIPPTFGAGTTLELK as well?
Ans: no (0)
